# MEASUREMENT_DESCRIPTION: Cytotoxicity against human A549 cells assessed as decrease in cell viability after 72 hrs by MTS assay
# Format: functional, cell-based
# EXPERIMENTAL_CONTEXT: A549, 72 h
EXPERIMENTAL_ENDPOINT: log10 of IC50 (log10 of the value in µM)
// stored as log10 of IC50 expressed in µM

// `Oc1ccc2c3c1[C@@H](O)[C@H]1O[C@H]1[C@]31Oc3cccc4c3[C@](C=C[C@@H]4O)(O2)O1` : log10 of IC50 value = 1.60

// `CO[C@@H]1[C@H](Cl)C(=O)c2c(O)ccc3c2[C@@]12Oc1cccc4c1[C@](O3)(O2)[C@H](OC)CC4=O` : log10 of IC50 value = 0.95

// `O=C1c2c(O)ccc3c2[C@@]2(Oc4cccc5c4[C@](C=C[C@@H]5O)(O3)O2)[C@@H]2O[C@H]12` : log10 of IC50 value = 0.89

// `O=C1CC[C@]23Oc4ccc(O)c5c4[C@](Oc4cccc1c42)(O3)[C@@H]1O[C@@H]1[C@@H]5O` : log10 of IC50 value = 1.88

// `O=C1CC[C@]23Oc4ccc(O)c5c4[C@](Oc4cccc1c42)(O3)[C@@H]1O[C@@H]1C5=O` : log10 of IC50 value = 0.97

// `CO[C@@H]1CC(=O)c2cccc3c2[C@@]12Oc1ccc(O)c4c1[C@](O3)(O2)[C@H](O)[C@H](Cl)C4=O` : log10 of IC50 value = 0.93

// `O=C1C=C[C@]23Oc4ccc(O)c5c4[C@](Oc4cccc1c42)(O3)[C@@H]1O[C@@H]1C5=O` : log10 of IC50 value = 0.79

// `CO[C@@H]1CC(=O)c2cccc3c2[C@@]12Oc1ccc(O)c4c1[C@](O3)(O2)[C@H](O)CC4=O` : log10 of IC50 value = 1.56

----------
# MEASUREMENT_DESCRIPTION: Cytotoxicity against human HepG2 cells assessed as decrease in cell viability after 72 hrs by MTS assay
# Assay type: functional, cell-based
# EXPERIMENTAL_CONTEXT: HepG2, 72 h
Give pIC50 for every item shown.
// field semantics: pIC50 = negative decimal log of concentration (mol/L)

// `O=C1CC[C@]23Oc4ccc(O)c5c4[C@](Oc4cccc1c42)(O3)[C@@H]1O[C@@H]1C5=O` : pIC50 value = 5.36

// `O=C1c2c(O)ccc3c2[C@@]2(Oc4cccc5c4[C@](C=C[C@@H]5O)(O3)O2)[C@@H]2O[C@H]12` : pIC50 value = 5.44

// `CO[C@@H]1CC(=O)c2cccc3c2[C@@]12Oc1ccc(O)c4c1[C@](O3)(O2)[C@H](O)CC4=O` : pIC50 value = 4.08

// `O=C1C=C[C@]23Oc4ccc(O)c5c4[C@](Oc4cccc1c42)(O3)[C@@H]1O[C@@H]1C5=O` : pIC50 value = 5.07

// `O=C1C[C@@H](O)[C@]23Oc4ccc(O)c5c4[C@](Oc4cccc1c42)(O3)[C@@H]1O[C@@H]1C5=O` : pIC50 value = 5.42

// O=C1C=C[C@]23Oc4ccc(O)c5c4[C@](Oc4cccc1c42)(O3)[C@@H]1O[C@@H]1[C@@H]5O [PREUSSOMERIN D] : pIC50 value = 4.42

// `CO[C@@H]1[C@H](Cl)C(=O)c2c(O)ccc3c2[C@@]12Oc1cccc4c1[C@](O3)(O2)[C@H](OC)CC4=O` : pIC50 value = 5.11

// `CO[C@@H]1CC(=O)c2cccc3c2[C@@]12Oc1ccc(O)c4c1[C@](O3)(O2)[C@H](O)[C@H](Cl)C4=O` : pIC50 value = 4.89

----------
# MEASUREMENT_DESCRIPTION: Cytotoxicity against HEK293T cells assessed as decrease in cell viability after 72 hrs by MTS assay
# Type: toxicity, cell-based, HEK-293T
# EXPERIMENTAL_CONTEXT: human
EXPERIMENTAL_ENDPOINT: log10 IC50 at 72 h (log10 of the value in µM)
// stored as log10 of IC50 at 72 h expressed in µM

// `CO[C@@H]1[C@H](Cl)C(=O)c2c(O)ccc3c2[C@@]12Oc1cccc4c1[C@](O3)(O2)[C@H](OC)CC4=O` : log10 IC50 at 72 h value = 1.04

// `O=C1c2c(O)ccc3c2[C@@]2(Oc4cccc5c4[C@](C=C[C@@H]5O)(O3)O2)[C@@H]2O[C@H]12` : log10 IC50 at 72 h value = 0.84

// `O=C1C=C[C@]23Oc4ccc(O)c5c4[C@](Oc4cccc1c42)(O3)[C@@H]1O[C@@H]1C5=O` : log10 IC50 at 72 h value = 1.23

// O=C1C=C[C@]23Oc4ccc(O)c5c4[C@](Oc4cccc1c42)(O3)[C@@H]1O[C@@H]1[C@@H]5O [PREUSSOMERIN D] : log10 IC50 at 72 h value = 1.38

// `O=C1CC[C@]23Oc4ccc(O)c5c4[C@](Oc4cccc1c42)(O3)[C@@H]1O[C@@H]1C5=O` : log10 IC50 at 72 h value = 1.08

// `O=C1CC[C@]23Oc4ccc(O)c5c4[C@](Oc4cccc1c42)(O3)[C@@H]1O[C@@H]1[C@@H]5O` : log10 IC50 at 72 h value = 1.93

// `CO[C@@H]1CC(=O)c2cccc3c2[C@@]12Oc1ccc(O)c4c1[C@](O3)(O2)[C@H](O)[C@H](Cl)C4=O` : log10 IC50 at 72 h value = 0.68

// `CO[C@@H]1CC(=O)c2cccc3c2[C@@]12Oc1ccc(O)c4c1[C@](O3)(O2)[C@H](O)CC4=O` : log10 IC50 at 72 h value = 1.92

// `O=C1C[C@@H](O)[C@]23Oc4ccc(O)c5c4[C@](Oc4cccc1c42)(O3)[C@@H]1O[C@@H]1C5=O` : log10 IC50 at 72 h value = 0.97

----------
# MEASUREMENT_DESCRIPTION: Cytotoxicity against human A549 cells assessed as decrease in cell viability after 72 hrs by MTS assay
# Format: functional, cell-based
# EXPERIMENTAL_CONTEXT: A549, 72 h
EXPERIMENTAL_ENDPOINT: IC50 (µM)
The response must be a number in µM with no trailing unit.

// `O=C1C=C[C@]23Oc4ccc(O)c5c4[C@](Oc4cccc1c42)(O3)[C@@H]1O[C@@H]1[C@@H]5O` : IC50 value = 6.6

// COc1cccc2c1C(=O)c1c(O)c3c(c(O)c1C2=O)C[C@@](O)(C(=O)CO)C[C@@H]3O[C@H]1C[C@H](N)[C@@H](O)[C@H](C)O1 [EPIRUBICIN] : IC50 value = 0.63

// `O=C1C[C@@H](O)[C@]23Oc4ccc(O)c5c4[C@](Oc4cccc1c42)(O3)[C@@H]1O[C@@H]1C5=O` : IC50 value = 5.4

----------
# Test system: Staphylococcus aureus
# MEASUREMENT_DESCRIPTION: Antibacterial activity against Staphylococcus aureus ATCC 12598 by broth dilution method
# Type: functional
Give log10 MIC for every item shown.
// stored as log10 of MIC expressed in µg/mL

Readout log10 MIC for `CO[C@@H]1CC(=O)c2cccc3c2[C@@]12Oc1ccc(O)c4c1[C@](O3)(O2)[C@H](O)[C@H](Cl)C4=O` , test system Staphylococcus aureus, was 0.79

Readout log10 MIC for `Oc1ccc2c3c1[C@@H](O)[C@H]1O[C@H]1[C@]31Oc3cccc4c3[C@](C=C[C@@H]4O)(O2)O1` , test system Staphylococcus aureus, was 0.79

Readout log10 MIC for `O=C1c2c(O)ccc3c2[C@@]2(Oc4cccc5c4[C@](C=C[C@@H]5O)(O3)O2)[C@@H]2O[C@H]12` , test system Staphylococcus aureus, was 1.11

Readout log10 MIC for `O=C(O)c1cn(C2CC2)c2cc(N3CCNCC3)c(F)cc2c1=O` , test system Staphylococcus aureus, was -0.60

Readout log10 MIC for `O=C1C[C@@H](O)[C@]23Oc4ccc(O)c5c4[C@](Oc4cccc1c42)(O3)[C@@H]1O[C@@H]1C5=O` , test system Staphylococcus aureus, was 1.70

Readout log10 MIC for `O=C1CC[C@]23Oc4ccc(O)c5c4[C@](Oc4cccc1c42)(O3)[C@@H]1O[C@@H]1C5=O` , test system Staphylococcus aureus, was 0.20

----------
# MEASUREMENT_DESCRIPTION: Cytotoxicity against human HepG2 cells assessed as decrease in cell viability after 72 hrs by MTS assay
# Assay type: functional, cell-based
# EXPERIMENTAL_CONTEXT: HepG2, 72 h
Give IC50 for every item shown.

// `O=C1CC[C@]23Oc4ccc(O)c5c4[C@](Oc4cccc1c42)(O3)[C@@H]1O[C@@H]1[C@@H]5O` : IC50 value = > 100 µM

// `Oc1ccc2c3c1[C@@H](O)[C@H]1O[C@H]1[C@]31Oc3cccc4c3[C@](C=C[C@@H]4O)(O2)O1` : IC50 value = > 100 µM

// `CO[C@@H]1CC(=O)c2cccc3c2[C@@]12Oc1ccc(O)c4c1[C@](O3)(O2)[C@@H]1O[C@@H]1[C@@H]4O` : IC50 value = > 100 µM

Ref: ChEMBL document CHEMBL3867449
